assay: Metabolic stability in human plasma assessed as compound remaining at 100 uM after 4 hrs incubation by LC-MS/MS analysis; format: ADME, cell-free; settings: read-out: Stability
quantityName: remaining at 4 h, 100 µM (%)

COC(=O)N[C@H](C(=O)N1CCC[C@H]1c1ncc(-c2cccc(OS(=O)(=O)Oc3cccc(-c4cnc([C@@H]5CCCN5C(=O)[C@@H](NC(=O)OC)C(C)C)[nH]4)c3)c2)[nH]1)C(C)C	92.6

[a] COC(=O)N[C@@H](C(=O)N1CCC[C@H]1C(=O)Nc1cccc(OS(=O)(=O)Oc2cccc(NC(=O)[C@@H]3CCCN3C(=O)[C@H](NC(=O)OC)c3ccccc3)c2)c1)c1ccccc1
[b] CCN(CC)CCOC(=O)c1ccc(N)cc1
Query: Returns: the argument ( a or b ) having the larger remaining at 4 h, 100 µM. Please indicate the selected item by its label.
Reply: a
(a: 86.3%, b: 0.003%)

* * *

system: Rattus norvegicus; assay: Half life in rat at 1 mg/kg, iv; format: ADME, organism-based; details: in vivo
quantityName: t1/2 (min)

[A] COC(=O)N[C@@H](C(=O)N1CCC[C@H]1C(=O)Nc1cccc(OS(=O)(=O)Oc2cccc(NC(=O)[C@@H]3CCCN3C(=O)[C@H](NC(=O)OC)c3ccccc3)c2)c1)c1ccccc1
[B] COC(=O)N[C@H](C(=O)N1CCC[C@H]1c1ncc(-c2cccc(OS(=O)(=O)Oc3cccc(-c4cnc([C@@H]5CCCN5C(=O)[C@@H](NC(=O)OC)C(C)C)[nH]4)c3)c2)[nH]1)C(C)C
Query: Just tell me: smaller t1/2 value, A or B ? Please indicate the selected item by its label.
Reply: A

* * *

test: Metabolic stability in rat plasma assessed as compound remaining at 100 uM after 4 hrs incubation by LC-MS/MS analysis; format: ADME, cell-free; conditions: read-out: Stability
quantityName: remaining at 4 h, 100 µM (%)

COC(=O)N[C@@H](C(=O)N1CCC[C@H]1C(=O)Nc1cccc(OS(=O)(=O)Oc2cccc(NC(=O)[C@@H]3CCCN3C(=O)[C@H](NC(=O)OC)c3ccccc3)c2)c1)c1ccccc1	76.7

[I] COC(=O)N[C@H](C(=O)N1CCC[C@H]1c1ncc(-c2cccc(OS(=O)(=O)Oc3cccc(-c4cnc([C@@H]5CCCN5C(=O)[C@@H](NC(=O)OC)C(C)C)[nH]4)c3)c2)[nH]1)C(C)C
[II] CCOC(=O)[C@H](CCc1ccccc1)N[C@@H](C)C(=O)N1CCC[C@H]1C(=O)O
Query: Returns: the argument ( I or II ) having the larger remaining at 4 h, 100 µM. Please indicate the selected item by its label.
Reply: I

* * *

tested on: Huh7.5.1; assay: Cytotoxicity against human Huh7.5.1 cells at 20 uM; format: cell-based
quantityName: Activity

Examples with answers:
COC(=O)N[C@@H](C(=O)N1CCC[C@H]1C(=O)Nc1ccc(S(=O)(=O)c2ccc(NC(=O)[C@@H]3CCCN3C(=O)[C@H](NC(=O)OC)C(C)C)cc2)cc1)C(C)C	> 30 µM
COC(=O)N[C@@H](C(=O)N1CCC[C@H]1C(=O)Nc1cccc(OS(=O)(=O)Oc2cccc(NC(=O)[C@@H]3CCCN3C(=O)[C@H](NC(=O)OC)c3ccccc3)c2C)c1C)c1ccccc1	> 30 µM

In the following, a different compound is considered.
Query: Fill in Activity for record COC(=O)N[C@@H](C(=O)N1CCC[C@H]1C(=O)Nc1ccc(S(=O)(=O)c2ccc(NC(=O)[C@@H]3CCCN3C(=O)[C@H](NC(=O)OC)c3ccccc3)cc2)cc1)c1ccccc1
Reply: > 30 µM

* * *

assay: Oral bioavailability in rat at 10 mg/kg; type: ADME, organism-based; conditions: in vivo
quantityName: bioavailability (%)

COC(=O)N[C@@H](C(=O)N1CCC[C@H]1C(=O)Nc1cccc(OS(=O)(=O)Oc2cccc(NC(=O)[C@@H]3CCCN3C(=O)[C@H](NC(=O)OC)c3ccccc3)c2)c1)c1ccccc1	0.54
COC(=O)N[C@H](C(=O)N1CCC[C@H]1c1ncc(-c2cccc(OS(=O)(=O)Oc3cccc(-c4cnc([C@@H]5CCCN5C(=O)[C@@H](NC(=O)OC)C(C)C)[nH]4)c3)c2)[nH]1)C(C)C	0.74
